System: UO-31 renal
Assay: NCI-60 one-dose screen, 48 h (100 = growth as untreated, 0 = no growth, -100 = all killed)
Details: 10 µM unless noted
The panel holds about 83,000 compounds, 20% with a hit somewhere; the sample as a whole holds those more often.
Readings of growth for the listed compounds
I only need the number, in %, no unit after it.

For orientation, consider the following solved cases.
{"compound": "CN1CCCCC1CCN1c2ccccc2Sc2ccc(Br)cc21 (configuration not stated)", "growth [%]": 32.9}
{"compound": "COc1cc(/C=N/N(C)C)ccc1O", "growth [%]": 89.1}
{"compound": "Cn1cc(-c2nc(-c3c[nH]c4ccccc34)cs2)c2cccnc21", "growth [%]": 43.8}
{"compound": "COc1ccc(/C=N\\NC(=O)c2ccncc2)cc1O", "growth [%]": 77.8}
{"compound": "CCCCN(CC)CCCCCCCCCCN1CCCc2cc(OC)ccc21", "growth [%]": 24.4}
{"compound": "COCCCNc1nc(NC(=O)c2ccc(F)cc2C)cc(-c2cccnc2)n1", "growth [%]": 88.5}
{"compound": "C/C(Cc1ccc(Cl)cc1)=C(\\c1ccc(OCCN2CCCCCC2)cc1)c1ccc(OC(=O)C2CCCCC2)cc1", "growth [%]": 40.9}
{"compound": "Nc1ccc(Nc2nccc(-c3ccc4ccccc4c3)n2)cc1", "growth [%]": 45.7}

Task: Any idea what its growth is? The compound is O=C1/C(=C/c2ccc(Cl)cc2Cl)CN(S(=O)(=O)c2ccccc2)C/C1=C\c1ccc(Cl)cc1Cl
Result: -61.4

Task: Follow-up entry: CCCCCCCCCCCCCCCCCCNC(=O)[C@H]1CSC(c2ccc(F)c(OC)c2)N1 (some centres not stated)
Result: 45.5
